Measured Target: Human immunodeficiency virus type 1 protease (Human immunodeficiency virus 1, UniProt Q72874)
pIC50: −log10 of the molar value.
Label Fulfilled when pIC50 is at or above 7; anything below gets Not fulfilled.

query: Kindly determine if pIC50 recorded for CC(C)[C@@H]1[C@H](OC(=O)N[C@@H](Cc2ccccc2)[C@H](O)CN2C[C@H]3CCCC[C@H]3C[C@H]2C(=O)NC(C)(C)C)CCS1(=O)=O is above or exactly 7.
result: Fulfilled

query: Reported pIC50 reaches at least 7 for C[C@@H]1CS(=O)(=O)C[C@@H]1OC(=O)N[C@@H](Cc1ccccc1)[C@H](O)CN1C[C@H]2CCCC[C@H]2C[C@H]1C(=O)NC(C)(C)C ?
result: Not fulfilled

query: Could you verify whether the entry CCCC[C@@H]1[C@H](OC(=O)N[C@@H](Cc2ccccc2)[C@H](O)CN2C[C@H]3CCCC[C@H]3C[C@H]2C(=O)NC(C)(C)C)CCS1(=O)=O shows pIC50 of no less than 7?
result: Fulfilled

query: Determine whether measured pIC50 meets or exceeds 7 for CC(C)(C)NC(=O)[C@@H]1C[C@@H]2CCCC[C@@H]2CN1C[C@@H](O)[C@H](Cc1ccccc1)NC(=O)O[C@@H]1CCSC1
result: Not fulfilled

query: hey, is pIC50 for this one >= 7? CCC[C@@H]1[C@H](OC(=O)N[C@@H](Cc2ccccc2)[C@H](O)CN2C[C@H]3CCCC[C@H]3C[C@H]2C(=O)NC(C)(C)C)CCS1(=O)=O
result: Fulfilled
